# Tested on: T-47D breast
# assay-notes: NCI-60 one-dose screen, 48 h
# experimental-context: 10 µM unless noted
Compounds without any hit were thinned out: in the full panel of roughly 83,000, 20% have a hit. The source made the active and inactive calls. How the source made its calls: active means growth percent below 10; inactive means the rest.
Classes used: true (1) for active, false (0) for inactive

>  <compound>
COc1ccc(CC(C#N)c2cc3ccccc3[nH]2)cc1 (stereo unspecified)

>  <class-assignment>
false (0)

$$$$
>  <compound>
CCCCN[C@H]1CC[C@@]2(C)[C@@H](CC[C@@]3(C)[C@H]2[C@H](O)C[C@H]2/C(=C(\CCC=C(C)C)C(=O)OC)[C@@H](OC(C)=O)C[C@@]23C)[C@@H]1C

>  <class-assignment>
false (0)

$$$$
>  <compound>
CCc1n(Cc2ccc3ccccc3c2)cc[n+]1Cc1ccc2ccccc2c1

>  <class-assignment>
true (1)

$$$$
>  <compound>
COc1ccc(-c2nnc(-c3ccc4c(c3)nc(-c3ccncc3)n4C3CCCCC3)o2)cc1

>  <class-assignment>
false (0)

$$$$
>  <compound>
OCCCC1CCN(C(Cc2ccccc2)c2ccccc2)CC1 (stereo unspecified)

>  <class-assignment>
false (0)

$$$$
>  <compound>
CC(=O)N1N=C(c2ccc(Nc3nc(Nc4ccc(Cl)cc4)nc(Nc4ccc(Cl)cc4)n3)cc2)CC1c1ccco1 (stereo unspecified)

>  <class-assignment>
false (0)

$$$$
>  <compound>
N#Cc1cccc(-c2c(-c3ccc4ccccc4c3)oc3ccccc3c2=O)c1

>  <class-assignment>
false (0)

$$$$
>  <compound>
O=CC1(C2(C=O)c3ccccc3-c3ccccc32)c2ccccc2-c2ccccc21

>  <class-assignment>
true (1)

$$$$
>  <compound>
CC1=Nc2cnc(Nc3ccc(OCCN4CCCCC4)cc3)nc2Nc2ccccc21

>  <class-assignment>
false (0)

$$$$
>  <compound>
O=Nc1c(-c2c(O)[nH]c3ncccc23)[nH]c2ccccc12

>  <class-assignment>
false (0)

$$$$
>  <compound>
CCCCOC(=O)OCc1cc(=O)c(O)co1

>  <class-assignment>
false (0)

$$$$
>  <compound>
CN(C)CCCC1(c2ccc(F)cc2)OCc2cc(-c3cccc4[nH]ccc34)ccc21 (stereo unspecified)

>  <class-assignment>
true (1)

$$$$
>  <compound>
Cc1ccc(C(C(N)=O)C(C(N)=O)c2ccccc2)cc1 (stereo unspecified)

>  <class-assignment>
false (0)

$$$$
>  <compound>
O=C(/C=C/c1ccc(Cl)cc1)c1cccc(Nc2nc(Nc3ccccc3)nc(Nc3ccccc3)n2)c1

>  <class-assignment>
false (0)

$$$$
>  <compound>
O=C(Nc1cccnc1Nc1ccc(F)cc1)c1cn(Cc2cccc(Oc3ccccc3)c2)nn1

>  <class-assignment>
false (0)

$$$$
>  <compound>
S=C(Nc1ccc(-c2nc(N3CCOCC3)c3cccn3n2)cc1)Nc1cccnc1

>  <class-assignment>
true (1)

$$$$
>  <compound>
COc1ccc(NC(=O)c2sc3nc(C)c(C(=O)/C=C/c4cccc(OC)c4)cc3c2N)cc1

>  <class-assignment>
false (0)

$$$$
>  <compound>
COC(=O)c1ccc2c(c1)C(=O)c1c-2n(CCCN)c(=O)c2cc([N+](=O)[O-])ccc12

>  <class-assignment>
true (1)

$$$$
>  <compound>
O=C1Nc2ccccc2/C1=C\c1nc(-c2ccccc2)n2ccccc12

>  <class-assignment>
false (0)

$$$$
>  <compound>
CCN(CC)CCOc1ccc(C(=C(C)c2ccc(Cl)cc2)c2ccc(OCCN(CC)CC)cc2)cc1

>  <class-assignment>
true (1)

$$$$
>  <compound>
O=C(CCC(=O)N/N=C/c1ccccc1O)N/N=C/c1ccccc1O

>  <class-assignment>
false (0)

$$$$

Hey, just so you know, these numbers are from PubChem BioAssay (NCI).
